# details: in ethyl acetate, 308.2 K
observed.property: solubility (mole fraction)

molecule=Oc1ccc(/C=C/c2cc(O)cc(O)c2)cc1 reported_measurement=0.0214

* * *

# details: in n-propanol, 298.2 K
observed.property: solubility (mole fraction)

molecule=Oc1ccc(/C=C/c2cc(O)cc(O)c2)cc1 reported_measurement=0.0113

* * *

# details: in n-butanol, 318.2 K
observed.property: solubility (mole fraction)

molecule=Oc1ccc(/C=C/c2cc(O)cc(O)c2)cc1 reported_measurement=0.0122

* * *

# details: in methanol, 288.2 K
observed.property: solubility (mole fraction)

molecule=Oc1ccc(/C=C/c2cc(O)cc(O)c2)cc1 reported_measurement=0.012

* * *

# details: in n-hexanol, 288.2 K
observed.property: solubility (mole fraction)

molecule=Oc1ccc(/C=C/c2cc(O)cc(O)c2)cc1 reported_measurement=0.0052

* * *

# details: in THF, 298.2 K
observed.property: solubility (mole fraction)

molecule=Oc1ccc(/C=C/c2cc(O)cc(O)c2)cc1 reported_measurement=0.109

* * *

# details: in THF, 318.2 K
observed.property: solubility (mole fraction)

molecule=Oc1ccc(/C=C/c2cc(O)cc(O)c2)cc1 reported_measurement=0.114

* * *

# details: in n-pentanol, 288.2 K
observed.property: solubility (mole fraction)

molecule=Oc1ccc(/C=C/c2cc(O)cc(O)c2)cc1 observed_property="solubility (mole fraction)" reported_measurement=0.0055

* * *

# details: in ethanol, 298.2 K
observed.property: solubility (mole fraction)

molecule=Oc1ccc(/C=C/c2cc(O)cc(O)c2)cc1 reported_measurement=0.0169

* * *

# details: in ethanol, 308.2 K
observed.property: solubility (mole fraction)

molecule=Oc1ccc(/C=C/c2cc(O)cc(O)c2)cc1 reported_measurement=0.0198

* * *

# details: in n-butanol, 288.2 K
observed.property: solubility (mole fraction)

molecule=Oc1ccc(/C=C/c2cc(O)cc(O)c2)cc1 reported_measurement=0.0058

* * *

# details: in acetone, 288.2 K
observed.property: solubility (mole fraction)

molecule=Oc1ccc(/C=C/c2cc(O)cc(O)c2)cc1 reported_measurement=0.0859

* * *

# details: in n-pentanol, 318.2 K
observed.property: solubility (mole fraction)

molecule=Oc1ccc(/C=C/c2cc(O)cc(O)c2)cc1 reported_measurement=0.0143

* * *

# details: in THF, 308.2 K
observed.property: solubility (mole fraction)

molecule=Oc1ccc(/C=C/c2cc(O)cc(O)c2)cc1 reported_measurement=0.112

* * *

# details: in acetone, 278.2 K
observed.property: solubility (mole fraction)

molecule=Oc1ccc(/C=C/c2cc(O)cc(O)c2)cc1 reported_measurement=0.0849

* * *

# details: in n-butanol, 278.2 K
observed.property: solubility (mole fraction)

molecule=Oc1ccc(/C=C/c2cc(O)cc(O)c2)cc1 reported_measurement=0.0041

* * *

# details: in isopropanol, 308.2 K
observed.property: solubility (mole fraction)

molecule=Oc1ccc(/C=C/c2cc(O)cc(O)c2)cc1 reported_measurement=0.011

* * *

# details: in ethyl acetate, 318.2 K
observed.property: solubility (mole fraction)

molecule=Oc1ccc(/C=C/c2cc(O)cc(O)c2)cc1 observed_property="solubility (mole fraction)" reported_measurement=0.0254

* * *

# details: in n-pentanol, 298.2 K
observed.property: solubility (mole fraction)

molecule=Oc1ccc(/C=C/c2cc(O)cc(O)c2)cc1 observed_property="solubility (mole fraction)" reported_measurement=0.0093

* * *

# details: in n-hexanol, 308.2 K
observed.property: solubility (mole fraction)

molecule=Oc1ccc(/C=C/c2cc(O)cc(O)c2)cc1 reported_measurement=0.0087

* * *

# details: in THF, 278.2 K
observed.property: solubility (mole fraction)

molecule=Oc1ccc(/C=C/c2cc(O)cc(O)c2)cc1 observed_property="solubility (mole fraction)" reported_measurement=0.104

* * *

# details: in n-propanol, 278.2 K
observed.property: solubility (mole fraction)

molecule=Oc1ccc(/C=C/c2cc(O)cc(O)c2)cc1 observed_property="solubility (mole fraction)" reported_measurement=0.0068

* * *

# details: in isopropanol, 278.2 K
observed.property: solubility (mole fraction)

molecule=Oc1ccc(/C=C/c2cc(O)cc(O)c2)cc1 observed_property="solubility (mole fraction)" reported_measurement=0.0053

* * *

# details: in n-hexanol, 278.2 K
observed.property: solubility (mole fraction)

molecule=Oc1ccc(/C=C/c2cc(O)cc(O)c2)cc1 reported_measurement=0.004

* * *

# details: in methanol, 278.2 K
observed.property: solubility (mole fraction)

molecule=Oc1ccc(/C=C/c2cc(O)cc(O)c2)cc1 observed_property="solubility (mole fraction)" reported_measurement=0.0108

* * *

# details: in methanol, 298.2 K
observed.property: solubility (mole fraction)

molecule=Oc1ccc(/C=C/c2cc(O)cc(O)c2)cc1 reported_measurement=0.0135

* * *

# details: in n-propanol, 288.2 K
observed.property: solubility (mole fraction)

molecule=Oc1ccc(/C=C/c2cc(O)cc(O)c2)cc1 observed_property="solubility (mole fraction)" reported_measurement=0.0088

* * *

# details: in n-hexanol, 298.2 K
observed.property: solubility (mole fraction)

molecule=Oc1ccc(/C=C/c2cc(O)cc(O)c2)cc1 reported_measurement=0.0075

* * *

# details: in ethyl acetate, 278.2 K
observed.property: solubility (mole fraction)

molecule=Oc1ccc(/C=C/c2cc(O)cc(O)c2)cc1 reported_measurement=0.0062

* * *

# details: in ethanol, 288.2 K
observed.property: solubility (mole fraction)

molecule=Oc1ccc(/C=C/c2cc(O)cc(O)c2)cc1 reported_measurement=0.0139

* * *

# details: in n-propanol, 308.2 K
observed.property: solubility (mole fraction)

molecule=Oc1ccc(/C=C/c2cc(O)cc(O)c2)cc1 reported_measurement=0.0128

* * *

# details: in isopropanol, 318.2 K
observed.property: solubility (mole fraction)

molecule=Oc1ccc(/C=C/c2cc(O)cc(O)c2)cc1 reported_measurement=0.0138

* * *

# details: in acetone, 308.2 K
observed.property: solubility (mole fraction)

molecule=Oc1ccc(/C=C/c2cc(O)cc(O)c2)cc1 observed_property="solubility (mole fraction)" reported_measurement=0.0874
